target: Cholecystokinin receptor type A (Cavia porcellus, UniProt Q63931); assay: Inhibitory activity towards binding of [125I]Bolton-Hunter-CCK-8 to CCKA receptor in guinea pig pancreatic tissue
Sequence (Q63931 whole entry): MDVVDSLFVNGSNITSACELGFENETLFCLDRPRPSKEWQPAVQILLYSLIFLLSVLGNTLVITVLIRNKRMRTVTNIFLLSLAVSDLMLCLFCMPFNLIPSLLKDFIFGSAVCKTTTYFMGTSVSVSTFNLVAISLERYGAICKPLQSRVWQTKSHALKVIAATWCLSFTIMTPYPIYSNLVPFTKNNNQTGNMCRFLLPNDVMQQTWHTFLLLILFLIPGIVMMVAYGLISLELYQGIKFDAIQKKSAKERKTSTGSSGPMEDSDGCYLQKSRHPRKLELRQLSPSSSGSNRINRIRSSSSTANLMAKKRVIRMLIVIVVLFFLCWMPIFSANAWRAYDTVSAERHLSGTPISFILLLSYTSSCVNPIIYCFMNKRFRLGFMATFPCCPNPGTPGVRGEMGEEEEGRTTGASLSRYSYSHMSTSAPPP
measured property: IC50 (nM)
One number for each entry, in nM.

Check out these entries, answers already filled in.
In [3]: df
Out[3]:
                              smiles_record  measure_unit  result_number
0  Cc1cccc(NC(=O)N[C@H](CCCc2ccccc2)C(=O)N2CCC(C(=O)c3ccccc3)CC2)c1            nM           1800
1  CC(C)C[C@H](NC(=O)[C@H](Cc1c[nH]c2ccccc12)NC(=O)OC(C)(C)C)C(=O)N1CCC(C(=O)c2ccccc2)CC1            nM            640
2  Cc1cccc(NC(=O)N[C@@H](C(=O)N2CCC(C(=O)c3ccccc3)CC2)[C@@H](C)OCc2ccccc2)c1            nM           1300

As a next step, examine the compound that follows.
(Q) # IC50 lookup, item CC(C)(C)OC(=O)N[C@@H](Cc1c[nH]c2ccccc12)C(=O)N1CCC(C(=O)c2ccccc2)CC1
(A) 4500

----------
Could you please report measured pIC50 for the items listed next?
molecular target: UniProt:Q63931; experiment: Inhibitory activity towards binding of [125I]Bolton-Hunter-CCK-8 to CCKA receptor in guinea pig pancreatic tissue
Give bare numbers, as −log10 of the molar value.

In [3]: df
Out[3]:
                              smiles_record  result_number
0  Cc1cccc(NC(=O)N[C@H](CCC(=O)O)C(=O)N2CCC(C(=O)c3ccccc3)CC2)c1           5.74
1  Cc1cccc(NC(=O)N[C@H](Cc2c[nH]c3ccccc23)C(=O)N2CCC(C(=O)c3ccccc3)CC2)c1           5.85

As a next step, examine the compound that follows.
(Q) Lab request: please report pIC50 under test system UniProt:Q63931 for Cc1cccc(NC(=O)N[C@H](COC(=O)N2CCOCC2)C(=O)N2CCC(C(=O)c3ccccc3)CC2)c1
(A) 5.82

----------
tested on: NCI-H345; experiment: Ability to block CCK-8-induced calcium mobilization in NCI-H345 cells; type: functional, cell-based; details: Homo sapiens
Could you please report measured IC50 for the items listed next?
Number plus unit, in that order.

>>> df
                              smiles_record  measured_property  result
0  CC1(C)C2CCC1(COC(=O)N[C@](C)(Cc1c[nH]c3ccccc13)C(=O)NC[C@@H](NC(=O)CCC(=O)O)c1ccccc1)CC2               IC50    2 nM
1  Cc1cccc(NC(=O)N[C@H](CCC(=O)N2CCCC2)C(=O)N2CCC(C(=O)c3ccccc3)CC2)c1               IC50  251 nM
2  Cc1cccc(NC(=O)N[C@H](COC(=O)N2CCCC2)C(=O)N2CCC(C(=O)c3ccccc3)CC2)c1               IC50  220 nM

(Q) # IC50 lookup, item Cc1cccc(NC(=O)N[C@H](COC(=O)N2CCCC2)C(=O)N2CCC(C(=O)Nc3ccccc3)CC2)c1
(A) 115 nM
